# Tested on: phosphorylation of ERK, KRAS G12C in NCJ-H358 cells
# Assay explanation: pERK inhibition assay, KRAS G12C
# Format: cell-based, human
# Stated conditions: Homo sapiens, 4 hours
Measure name: pIC50
Notebook: values listed as pIC50 are -log10 of the concentration (mol/L).

These recorded examples may help you get a feel for the data.
CCn1c(-c2cccnc2COC)c2c3cc(ccc31)-c1cc(O)cc(c1)C[C@H](NC(=O)[C@H](C(C)C)N(C)C(=O)C1CN(C(=O)[C@H](F)Cl)C1)C(=O)N1CCC[C@H](N1)C(=O)OCC(C)(C)C2 [RM461-A, reference compound]: 7.31
CCn1c(-c2cc(N3CCN(C)CC3)cnc2[C@H](C)OC)c2c3cc(c(F)cc31)-c1csc(n1)C[C@H](NC(=O)[C@H](C(C)C)N(C)C(=O)C1(F)CCN(C(=O)[C@H](F)Cl)CC1)C(=O)N1CCC[C@H](N1)C(=O)OCC(C)(C)C2 (atropisomer, axis not shown; (M)) [Example 34]: 8.70
CO[C@@H](C)c1ncc(N2CCOCC2)cc1-c1c2c3cc(c(F)cc3n1CC(F)(F)F)-c1csc(n1)C[C@H](NC(=O)[C@H](C(C)C)N1CC[C@]3(CCN(C(=O)[C@H](F)Cl)C3)C1=O)C(=O)N1CCC[C@H](N1)C(=O)OCC(C)(C)C2 (atropisomer, axis not shown; (M)) [Example 57]: 8.22

Next item in the queue.
Lookup: Give its pIC50 value. Item: CO[C@@H](C)c1ncc(N2CCN(CC(F)(F)F)CC2)cc1-c1c2c3cc(c(F)cc3n1CC(F)(F)F)-c1csc(n1)C[C@H](NC(=O)[C@H](C(C)C)N1CC[C@@]3(CCN(C(=O)[C@H](F)Cl)C3)C1=O)C(=O)N1CCC[C@H](N1)C(=O)OCC(C)(C)C2 (atropisomer, axis not shown) [Example 43]
Found: 8.22

====

In this section, each of the molecules is paired with its reported IC50.
# Tgt: KRAS G12C-BRAF complex (Homo sapiens (Human), UniProt P01116+P62937, G12C)
# Sequence (P01116-2 other isoform, or with tags, fused parts or gaps G12C): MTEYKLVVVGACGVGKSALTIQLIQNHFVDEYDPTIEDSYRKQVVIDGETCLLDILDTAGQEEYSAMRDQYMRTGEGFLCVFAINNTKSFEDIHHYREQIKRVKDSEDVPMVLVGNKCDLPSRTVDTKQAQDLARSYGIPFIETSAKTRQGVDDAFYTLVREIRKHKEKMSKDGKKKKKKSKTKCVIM
# Sequence (P62937 whole entry): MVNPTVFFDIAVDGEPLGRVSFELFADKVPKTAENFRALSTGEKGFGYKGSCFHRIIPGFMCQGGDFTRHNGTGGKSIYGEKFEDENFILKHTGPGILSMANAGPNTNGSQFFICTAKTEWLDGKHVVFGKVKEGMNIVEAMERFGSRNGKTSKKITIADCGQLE
# Assay explanation: KRAS-BRAF with CYPA (500 nM) interaction assay (TR-FRET), G12C
# Format: biochemical
# value in nM; strip the unit string

Some entries whose results are on file:
CCn1c(-c2cc(N3CCN(CC(F)(F)F)CC3)cnc2[C@H](C)OC)c2c3cc(c(F)cc31)-c1csc(n1)C[C@H](NC(=O)[C@H](C(C)C)N(C)C(=O)C1(F)CCN(C(=O)[C@H](F)Cl)CC1)C(=O)N1CCC[C@H](N1)C(=O)OCC(C)(C)C2 (atropisomer, axis not shown; (M)): 15
CO[C@@H](C)c1ncc(N2CCN(CC(F)(F)F)CC2)cc1-c1c2c3cc(c(F)cc3n1CC(F)(F)F)-c1csc(n1)C[C@H](NC(=O)[C@H](C(C)C)N(C)C(=O)C1(F)CCN(C(=O)[C@H](F)Cl)CC1)C(=O)N1CCC[C@H](N1)C(=O)OCC(C)(C)C2 (atropisomer, axis not shown; (M)): 34

Lookup: Param item = CCn1c(-c2cccnc2COC)c2c3cc(ccc31)-c1cc(O)cc(c1)C[C@H](NC(=O)[C@H](C(C)C)N(C)C(=O)C1CN(C(=O)[C@H](F)Cl)C1)C(=O)N1CCC[C@H](N1)C(=O)OCC(C)(C)C2 [RM461-A, reference compound] ; retrieve measured IC50.
Found: 27

Hey, just so you know, these numbers are from patent US20250206761A1.
